Sourced from PubChem BioAssay

- ASSAY_PROCEDURE: compound effects on lung adenocarcinoma cell viability – A549, calcein-AM fluorescence, 48 h, basal, profiling panel (AID 1162); note: test concentration not given here
- CONDITION_LABEL: higher = more signal
Items are presented alongside their recorded z-score.

COMPOUND	z-score
O=C1c2ccccc2[C@](Cc2ccccc2I)(C(=O)O)[C@H](c2ccc(CO)cc2)N1Cc1ccccc1C(F)(F)F	-0.26
COC(=O)[C@@]1(Cc2ccc(F)cc2)[C@H]2c3cc(C(=O)N4CCCC4)n(CCc4ccc(OC)c(Br)c4)c3C[C@H]2CN1C(=O)c1ccccc1	-1.58
C=CCN1C(=O)[C@]2(COC(c3ccc(OCCCO)cc3)=N2)Cc2ccccc21	0.78
CCCC[C@H]1C[C@@H]1[C@@H]1N(P(=O)(c2ccccc2)c2ccccc2)[C@](CO)(c2ccccc2)CC12CC2	-2.02
C=CCOC(=O)[C@@H]1[C@H]2C(=O)O[C@H](c3ccccc3)[C@H](c3ccccc3)N2[C@H](c2ccc(OCCOC(=O)[C@H]3C[C@H]4C(=O)N[C@@H](CC(C)C)C(=O)N4[C@H]3c3cccc(OCCO)c3)cc2)[C@@]12C(=O)Nc1ccc(I)cc12	0.704
C=CCN1Cc2ccccc2C[C@]2(N=C(c3ccc(OCCCO)cc3)O[C@@H]2c2ccccc2)C1=O	-0.584
Cc1ccc(N2C(=O)c3ccccc3[C@@H](C(=O)NCC(C)C)[C@@H]2c2ccc(CO)cc2)nc1	0.593
O=C1C[C@@](C(=O)O)(c2ccc([N+](=O)[O-])cc2)[C@@H](c2ccc(CO)cc2I)N1CC12CC3CC(CC(C3)C1)C2	-1.27
O=C1OCC=C[C@H]2OC34C=CCN(CCN5CCOCC5)C(=O)[C@H]3N(CCCCCCO)C(=O)[C@@H]4[C@@H]12 (stereo not given in full)	-0.213
O=c1cccc(-c2cccc3ccccc23)o1	-1.07
C=CCC(OC(C)=O)[C@@H]1[C@@H](N(Cc2ccc(-c3ccccc3)cc2)C(=O)c2ccc(C)cc2)c2cc(OCCCO)ccc2N1C(=O)c1ccc2ccccc2n1 (stereo not given in full)	3.36
C=CCNC(=O)[C@H]1[C@@H]2C(=O)O[C@@H](c3ccccc3)[C@@H](c3ccccc3)N2[C@@H](c2ccc(O)cc2)[C@]12C(=O)Nc1ccc(C#Cc3ccc(OC)cc3)cc12	-1.06
CCCCN1CC=CC23O[C@@H]4C=CCCOC(=O)C4[C@H]2C(=O)N(CCCO)[C@@H]3C1=O (stereo not given in full)	0.146
O=c1cccc(-c2ccccc2)o1	-1.18
CCCNC(=O)[C@@]1(C)c2ccccc2C(=O)N(Cc2cc(C(F)(F)F)cc(C(F)(F)F)c2)[C@H]1c1ccc(CO)cc1	-0.283

====

Items are presented alongside their recorded z-score.
- TGT: NADPH oxidase 4 (Homo sapiens) (UniProt Q9NPH5)
- Sequence (Q9NPH5 whole entry, looked up): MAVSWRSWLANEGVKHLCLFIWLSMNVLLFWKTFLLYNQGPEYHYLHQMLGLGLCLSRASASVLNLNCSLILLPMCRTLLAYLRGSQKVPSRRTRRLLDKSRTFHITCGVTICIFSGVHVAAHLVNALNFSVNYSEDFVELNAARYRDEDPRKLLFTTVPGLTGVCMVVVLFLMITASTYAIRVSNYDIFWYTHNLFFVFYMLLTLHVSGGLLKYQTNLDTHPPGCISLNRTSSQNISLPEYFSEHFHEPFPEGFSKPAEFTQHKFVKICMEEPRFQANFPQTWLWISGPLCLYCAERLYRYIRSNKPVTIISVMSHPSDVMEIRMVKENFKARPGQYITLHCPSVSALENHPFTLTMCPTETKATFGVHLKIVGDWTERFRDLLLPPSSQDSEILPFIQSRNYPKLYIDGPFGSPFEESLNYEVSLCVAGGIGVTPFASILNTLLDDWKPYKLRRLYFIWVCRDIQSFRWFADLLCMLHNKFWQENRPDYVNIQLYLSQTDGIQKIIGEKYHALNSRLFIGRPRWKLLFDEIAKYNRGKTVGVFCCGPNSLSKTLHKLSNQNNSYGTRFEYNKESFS
- ASSAY_PROCEDURE: compounds shifting NOX4 Amplex Red fluorescence – cell-based, HEK293-NOX4, tetracycline-induced, NOX inhibitor project, primary screen (AID 1160)
- CONDITION_LABEL: HEK293-NOX4, Amplex Red H2O2 fluorescence, 45 min; higher = more signal, called active from +8 up or from −8 down
REPORTED_ENDPOINT: z-score

MOLECULE	REPORTED_ENDPOINT	READING
COCCOC(=O)N1C(=O)[C@@]2(c3cc(C#CCC(C(=O)OC)C(=O)OC)ccc31)[C@H](c1ccccc1OCCO)N1[C@H](c3ccccc3)[C@H](c3ccccc3)OC(=O)[C@H]1[C@@H]2C(=O)Nc1nc2ccccc2s1	z-score	1.19
C=C[C@H](OC)[C@@H](OC(=O)Nc1ccc(SC)cc1)c1ccc(OCCO)cc1	z-score	0.103
CCOC(=O)C[C@H]1[C@H](OC(=O)c2ccc(C(=O)c3ccccc3)cc2)[C@@H](NC(=O)c2ccc3ccccc3n2)c2cc(OCCCO)ccc2N1C(=O)c1ccc2ccccc2n1	z-score	0.532
C=CCN1Cc2ccccc2C[C@@]2(COC(c3ccc(OCCCO)cc3)=N2)C1=O	z-score	-1.35
CC(C)(C)OC(=O)CC[C@@]1(C(=O)N2CCOCC2)N=C(c2ccc(OCCCO)cc2)O[C@@H]1c1ccccc1N=[N+]=[N-]	z-score	0.71
O=C1O[C@H](c2ccccc2)[C@H](c2ccccc2)N2[C@H]1[C@@H](C(=O)N1CCCCCCC1)[C@]1(C(=O)Nc3ccc(C#CC4=CCCCC4)cc31)[C@H]2c1ccc(O)cc1	z-score	0.494
O=C1OCCC/C=C\[C@H]2OC34C=CCN(Cn5nnc6ccccc65)C(=O)[C@H]3N(CCCO)C(=O)[C@@H]4C12 (some centres undefined)	z-score	0.689
COc1ccc(C(O)C2C=CC3C(=O)N(c4ccccc4)C(=O)C3N2Nc2ccccc2)c2ccccc12 (centres undefined)	z-score	-3.15
Cc1ccc(S[C@]2(C(=O)NCCCN(C)C)CC(=O)N(C(C)C)[C@@H]2c2ccc(CO)cc2I)cc1	z-score	-0.675
CC(C)(C)OC(=O)CC[C@@]1(C(=O)NCC(O)CO)N=C(c2ccc(OCCCO)cc2)O[C@@H]1c1ccccc1 (some centres undefined)	z-score	0.626
O=C1O[C@@H](c2ccccc2)[C@@H](c2ccccc2)N2[C@@H](c3ccc(O)cc3)[C@]3(C(=O)Nc4ccc(C#CCCO)cc43)[C@@H](C(=O)N3CCCCCCC3)[C@H]12	z-score	0.277
COC(=O)c1c(CC[C@@H](CO)NC(=O)Nc2ncn[nH]2)oc(C(=O)Cc2ccccc2)c1C(=O)OC	z-score	-0.331
COc1ccc([Si](C)(C)[C@@H]2[C@@H](CCO)O[C@]3(C(=O)N(Cc4cccc(N(C=O)c5ccccc5)c4)c4ccccc43)[C@H]2C)cc1	z-score	-0.249
CN(C)CCCC[C@@H]1NC(=O)[C@@H]2C[C@H](C(=O)NCc3ccc(F)cc3)[C@H](c3cccc(OCCO)c3)N2C1=O	z-score	1.37

====

- ASSAY_PROCEDURE: basal CRE-LacZ reporter activity in PC12 – cell-based, unstimulated, primary screen (AID 1145)
- CONDITION_LABEL: no forskolin, luminescence, 4.5 h, higher = more signal, called active from +8 up or from −8 down
Label rule, in plain words: z-score of 0.09 and up is Yes, under 0.09 is No.

COMPOUND	GROUP
C=CC[C@]1(C(=O)O)N=C(c2ccc(OCCCO)cc2)O[C@H]1c1ccccc1CN=[N+]=[N-]	Yes
COC(=O)[C@@]1(Cc2ccccc2)[C@H]2c3cc(C(=O)N(C)C)n(Cc4ccccc4)c3C[C@H]2CN1C(=O)c1ccccc1	Yes
C=C(CCCC)C(=O)CC[C@H](OC(=O)c1ccccc1-c1ccccc1C(=O)O)c1ccc(CO)o1	No
Cn1c2c(c3ccccc31)C(=O)C1NC2C=CC1(C)C(=O)OCc1ccccc1 (stereo unspecified)	Yes
O=C1O[C@H](c2ccccc2)[C@H](c2ccccc2)N2[C@H]1[C@@H](C(=O)NC[C@H](O)c1ccccc1)[C@]1(C(=O)Nc3ccc(C#CC4(O)CCCCCC4)cc31)[C@H]2c1ccccc1OCCO	No
CN1C(=O)C2C(C1=O)C1C=C(c3ccc(CO)cc3)C2C(C2CC2)N1Cc1sc2ccccc2c1Cl (stereo unspecified)	Yes
CCCC[C@@H]1C[C@H]1[C@@H](NC(=O)c1ccccc1)c1ccccc1	No
C=C[C@H](C)[C@H](OC(=O)Nc1ccc(OC)cc1)c1ccc(O)c2ccccc12	Yes
O=C(NCC(F)(F)F)[C@@H]1c2ccccc2C(=O)N(Cc2ccccc2)[C@H]1c1ccc(CO)cc1	No
O=c1cccc(-c2ccccc2)o1	No
CN1C(=O)C2C=CC(C(O)C3=C[C@H]4C[C@@H](C3)C4(C)C)N(Nc3ccc([N+](=O)[O-])cc3[N+](=O)[O-])C2C1=O (stereo partly specified)	Yes
CCCNC(=O)[C@@]1(c2ccc([N+](=O)[O-])cc2)CC(=O)N(CC23CC4CC(CC(C4)C2)C3)[C@@H]1c1ccc(CO)cc1I	Yes
O=C(NCC(O)CO)[C@@]1(Cc2ccccc2)N=C(c2ccc(OCCCO)cc2)O[C@H]1c1ccccc1 (stereo partly specified)	Yes
O=C1C2C=CC(C(O)CCc3ccccc3)N(Nc3ccccc3)C2C(=O)N1c1ccccc1 (stereo unspecified)	Yes
COC(=O)[C@@]1(Cc2ccc(F)cc2)[C@H]2c3cc(C(=O)N(C)C)n(CCc4c[nH]c5ccc(OC)cc45)c3C[C@H]2CN1C(=O)c1ccccc1	Yes

====

Items are presented alongside their recorded z-score.
- ASSAY_PROCEDURE: changes in parasitized red cell lysis, either direction – P. falciparum Indochina, OD700, 3 h, PSAC antagonist project, primary screen (AID 1156)
- CONDITION_LABEL: P. falciparum-infected erythrocytes, osmotic lysis, higher = more signal, called active from +8 up or from −8 down
REPORTED_ENDPOINT: z-score

                                   molecule  reading
0  C=C(C(=O)CC[C@@H](OC(=O)c1cccnc1)c1ccc(CO)o1)C(C)C    0.375
1  CC1CC/C=C\[C@H]2OC34C=CCN(Cn5nnc6ccccc65)C(=O)[C@H]3N(CCCO)C(=O)[C@@H]4C2C(=O)O1 (some centres undefined)   -0.264
2  O=P(NCC1(CC2(c3ccccc3)CO2)CC1)(c1ccccc1)c1ccccc1 (centres undefined)    0.424
3  C[N+](C)(C)CCCC[C@@H]1NC(=O)[C@H]2C[C@@H](C(=O)O)[C@@H](c3cccc(OCCO)c3)N2C1=O    -1.43
